B1: Pistol ribozyme (parent)
chain: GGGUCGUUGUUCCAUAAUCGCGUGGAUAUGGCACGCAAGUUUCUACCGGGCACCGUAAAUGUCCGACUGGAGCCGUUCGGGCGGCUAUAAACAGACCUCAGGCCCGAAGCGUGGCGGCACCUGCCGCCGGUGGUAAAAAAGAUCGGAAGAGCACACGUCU

Variants of: B1
Protocol Notes: aptazyme ON/OFF ratio, guanine; higher = stronger switching; co-transcriptional cleavage with and without guanine
Metric Name: aptazyme ON/OFF ratio
I only need the number, thanks.

Input: Give the measured aptazyme ON/OFF ratio for U7A U10A U11A C12U C13U
Output: 1.22

Input: Give the measured aptazyme ON/OFF ratio for U10G U11C C13G
Output: 1.04

Input: Give the measured aptazyme ON/OFF ratio for U7G U8A U10C U11A C12A C13U
Output: 1.39

Input: Give the measured aptazyme ON/OFF ratio for U7G G9C U10G C12U C13U
Output: 1.13

Input: Give the measured aptazyme ON/OFF ratio for U8A G9A U10A U11G C12G C13G
Output: 1.4

Input: Give the measured aptazyme ON/OFF ratio for U7C U8C G9C U10C U11G C12U C13U
Output: 1.1

Input: Give the measured aptazyme ON/OFF ratio for U7C U8C U11G C12G
Output: 1.33

Input: Give the measured aptazyme ON/OFF ratio for U8C U10C U11G C12G C13A
Output: 1.25

Input: Give the measured aptazyme ON/OFF ratio for U7G U8C G9A U10A C13U
Output: 1.83

Input: Give the measured aptazyme ON/OFF ratio for U7A G9U U10C U11A C12A C13G
Output: 1.15

Input: Give the measured aptazyme ON/OFF ratio for U8A C12A C13A
Output: 1.24

Input: Give the measured aptazyme ON/OFF ratio for U7C U8A G9U U11G C12U C13U
Output: 1.24

Input: Give the measured aptazyme ON/OFF ratio for U7A G9C U11A C12U C13G
Output: 1.07

Input: Give the measured aptazyme ON/OFF ratio for U8A G9C U11C C12A C13A
Output: 1.07

Input: Give the measured aptazyme ON/OFF ratio for U7G U8A G9C U10G C13A
Output: 1.11

Input: Give the measured aptazyme ON/OFF ratio for G9A U10A U11G C12A C13U
Output: 1.26

Input: Give the measured aptazyme ON/OFF ratio for U7G U8C U11A C12G C13G
Output: 1.07

Input: Give the measured aptazyme ON/OFF ratio for U7G U8C G9A U11A C12G
Output: 1.1

Input: Give the measured aptazyme ON/OFF ratio for U7G G9U U10A U11A C12U
Output: 1.54

Input: Give the measured aptazyme ON/OFF ratio for U8A G9U C12U C13A
Output: 1.36

Input: Give the measured aptazyme ON/OFF ratio for G9C U10A U11C C12U
Output: 1.13

Input: Give the measured aptazyme ON/OFF ratio for U8G U11A C13U
Output: 1.33

Input: Give the measured aptazyme ON/OFF ratio for U7G U8G G9A U10G U11C C13U
Output: 1.08

Input: Give the measured aptazyme ON/OFF ratio for U7G U8A G9U U10G U11C C12G
Output: 1.1

Input: Give the measured aptazyme ON/OFF ratio for U7A U8C G9U U10A U11C C12U C13A
Output: 1.1

Input: Give the measured aptazyme ON/OFF ratio for U7G U8C G9A U11G C12U C13U
Output: 1.18

Input: Give the measured aptazyme ON/OFF ratio for U8A G9C U10A U11C C12A C13A
Output: 1.22

Input: Give the measured aptazyme ON/OFF ratio for U7G U8G U11C C12U C13G
Output: 1.3

Input: Give the measured aptazyme ON/OFF ratio for U7G U8G G9C U10C C13G
Output: 1.15

Input: Give the measured aptazyme ON/OFF ratio for U7A U8A G9A U11C C12A C13A
Output: 1.17

Input: Give the measured aptazyme ON/OFF ratio for U7A U8A G9U U10A C12U C13A
Output: 1.05

Input: Give the measured aptazyme ON/OFF ratio for U7C U8A G9C U10G U11C C12A C13A
Output: 1.36

Input: Give the measured aptazyme ON/OFF ratio for U7C U8C G9A U10C U11A C12A C13U
Output: 1.18

Input: Give the measured aptazyme ON/OFF ratio for U7C G9U U10G U11G C12U C13G
Output: 1.13

Input: Give the measured aptazyme ON/OFF ratio for U7C U8C G9U U10C U11C C12A C13G
Output: 1.18

Input: Give the measured aptazyme ON/OFF ratio for U7G U8C G9C U10C U11A C13U
Output: 1.03

Input: Give the measured aptazyme ON/OFF ratio for U7A U10G U11A C12A
Output: 1.36

Input: Give the measured aptazyme ON/OFF ratio for U7C U8G G9A U10G C12G
Output: 1.34

Input: Give the measured aptazyme ON/OFF ratio for U7C U8C G9U U10A U11G C12A C13A
Output: 1.19

Input: Give the measured aptazyme ON/OFF ratio for U7A U8G G9U U10C
Output: 2.52

Input: Give the measured aptazyme ON/OFF ratio for U7A G9A U10A U11G
Output: 1.3

Input: Give the measured aptazyme ON/OFF ratio for U7G U10A C12G
Output: 1.22

Input: Give the measured aptazyme ON/OFF ratio for U8C G9C U10C U11C C13G
Output: 1.04

Input: Give the measured aptazyme ON/OFF ratio for U7G U8G G9U U11G C12U C13U
Output: 1.27

Input: Give the measured aptazyme ON/OFF ratio for U8G G9C U10A C13G
Output: 1.06

Input: Give the measured aptazyme ON/OFF ratio for U7C C12A C13G
Output: 1.1

Input: Give the measured aptazyme ON/OFF ratio for U7C U8G G9A U11A C12A C13A
Output: 1.3

Input: Give the measured aptazyme ON/OFF ratio for U7G U8A G9A U10G U11C C12A C13U
Output: 1.14

Input: Give the measured aptazyme ON/OFF ratio for U8C G9U U10C C12U C13A
Output: 1.06

Input: Give the measured aptazyme ON/OFF ratio for U7G U8C G9A U10C U11C C12A C13A
Output: 1.2

Input: Give the measured aptazyme ON/OFF ratio for U7A U8G G9C C12G C13A
Output: 1.36

Input: Give the measured aptazyme ON/OFF ratio for U8A U10C
Output: 4.03

Input: Give the measured aptazyme ON/OFF ratio for U8A G9C U10A C13G
Output: 1.06

Input: Give the measured aptazyme ON/OFF ratio for U7G G9A U10C U11A C13G
Output: 1.09

Input: Give the measured aptazyme ON/OFF ratio for U7C G9C U10G U11G C12A C13A
Output: 1.08

Input: Give the measured aptazyme ON/OFF ratio for U7G U8A G9C U10G U11A C13A
Output: 1.05

Input: Give the measured aptazyme ON/OFF ratio for U7G U8G G9A C13A
Output: 1.5

Input: Give the measured aptazyme ON/OFF ratio for U7G U8G G9U U10G U11G C12G
Output: 1.16

Input: Give the measured aptazyme ON/OFF ratio for U7A U8A G9C U10C U11G C12A C13U
Output: 1.03

Input: Give the measured aptazyme ON/OFF ratio for U7G G9U U10A U11G C12U
Output: 1.4

Input: Give the measured aptazyme ON/OFF ratio for U8A G9U U10A U11G C12G C13G
Output: 1.24

Input: Give the measured aptazyme ON/OFF ratio for U7G U8A U11A C12A C13G
Output: 1.24

Input: Give the measured aptazyme ON/OFF ratio for U8A U10A U11G
Output: 1.17

Input: Give the measured aptazyme ON/OFF ratio for U8A C12G C13A
Output: 1.48

Input: Give the measured aptazyme ON/OFF ratio for U7A U8C G9C U10G U11C C13U
Output: 1.1

Input: Give the measured aptazyme ON/OFF ratio for U7C U8G U10G C12U
Output: 1.24

Input: Give the measured aptazyme ON/OFF ratio for U7C U8A G9U U10G U11G C12G
Output: 1.26

Input: Give the measured aptazyme ON/OFF ratio for U7A U8G G9A U10A U11G C12U C13U
Output: 1.33

Input: Give the measured aptazyme ON/OFF ratio for U7C U8C G9U U11G
Output: 1.16

Input: Give the measured aptazyme ON/OFF ratio for U8A G9A U11C C12U C13U
Output: 1.21

Input: Give the measured aptazyme ON/OFF ratio for U7A U8A U11C C12G C13G
Output: 1.24

Input: Give the measured aptazyme ON/OFF ratio for U7G U8C U10C U11G C12G C13G
Output: 1.08

Input: Give the measured aptazyme ON/OFF ratio for U7A U8A U10G C13G
Output: 1.12

Input: Give the measured aptazyme ON/OFF ratio for U8A G9C U11C C12U C13G
Output: 1.04

Input: Give the measured aptazyme ON/OFF ratio for U7G U8A G9U U11G C12U C13U
Output: 1.15

Input: Give the measured aptazyme ON/OFF ratio for U7C U10A U11C C12U C13G
Output: 1.07

Input: Give the measured aptazyme ON/OFF ratio for U7A U8G G9U U10A U11G C13U
Output: 1.37

Input: Give the measured aptazyme ON/OFF ratio for U7A U8C G9A U11C C12U C13G
Output: 1.16

Input: Give the measured aptazyme ON/OFF ratio for U7A U8G G9A U10C U11A C12U C13A
Output: 1.11

Input: Give the measured aptazyme ON/OFF ratio for U7G G9U U10G U11A C12A C13A
Output: 1.16

Input: Give the measured aptazyme ON/OFF ratio for U7A G9C U11G C12A C13G
Output: 1.14

Input: Give the measured aptazyme ON/OFF ratio for U7G U8A G9A U10G C12A C13U
Output: 1.37

Input: Give the measured aptazyme ON/OFF ratio for U7G G9U C13U
Output: 1.45

Input: Give the measured aptazyme ON/OFF ratio for U8G G9C U11A C12U C13A
Output: 1.03

Input: Give the measured aptazyme ON/OFF ratio for U7C U8A G9A U10C U11C C12U
Output: 1.04

Input: Give the measured aptazyme ON/OFF ratio for U7G U8G G9U U10G C12G C13G
Output: 1.15

Input: Give the measured aptazyme ON/OFF ratio for U7G U10C U11G C12U
Output: 1.2

Input: Give the measured aptazyme ON/OFF ratio for U7A U8A U10G U11G
Output: 1.38

Input: Give the measured aptazyme ON/OFF ratio for U7A U8A U10G C12G C13A
Output: 1.17

Input: Give the measured aptazyme ON/OFF ratio for U7C U8G U10C U11A C12A C13G
Output: 1.14

Input: Give the measured aptazyme ON/OFF ratio for U7A U8C U10A U11G C12U C13A
Output: 1.28
